Target: Lysine-specific histone demethylase 1A (Homo sapiens)
Assay: Inhibition of human recombinant LSD1 expressed in Escherichia coli using H3K4me2 peptide as substrate incubated for 60 mins by AlphaLISA assay
endpoint name: IC50

> print(dat)
                                 mol.smiles  result.value
1  Cc1ccc(-c2ncc(OC[C@@H]3CCNC3)cc2-c2ccc(C#N)cc2)cc1        130 nM
2  CC(C)c1ccc(-c2ncc3c(ccn3CC3CCNCC3)c2-c2ccc(C#N)cc2)cc1       46.1 nM
3  N#Cc1ccc(-c2c(-c3ccc4[nH]ncc4c3)ncc3c2ccn3CC2CCNCC2)cc1       94.3 nM
4  CCC1(Cn2ccc3c(-c4ccc(C#N)cc4)c(-c4ccc5c(cnn5C)c4)ncc32)CCNCC1        121 nM
5  CNCCCn1ccc2c(-c3ccc(C#N)cc3)c(-c3ccc4c(cnn4C)c3)ncc21       42.8 nM
